Where these numbers come from: patent US20030055072A1

biological target: UniProtKB Q13526
Sequence (Q13526 whole entry): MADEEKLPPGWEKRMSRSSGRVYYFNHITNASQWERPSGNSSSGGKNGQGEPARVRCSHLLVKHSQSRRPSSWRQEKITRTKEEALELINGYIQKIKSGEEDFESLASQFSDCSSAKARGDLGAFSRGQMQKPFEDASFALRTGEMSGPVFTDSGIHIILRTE
pIC50: −log10 of the molar value.
Readout name: pIC50

- Compound: "C/C=C/C=C/c1cc2cc3c(c(O)c2c(=O)[nH]1)C1(CC3)C(=O)c2c(O)c3c(c(O)c2C1=O)C(=O)C(OC)=CC3=O (stereo not shown)"
  Experimental value: 6.05

###

biological target: hFKBP12 (Homo sapiens)
Sequence (P62942 whole entry): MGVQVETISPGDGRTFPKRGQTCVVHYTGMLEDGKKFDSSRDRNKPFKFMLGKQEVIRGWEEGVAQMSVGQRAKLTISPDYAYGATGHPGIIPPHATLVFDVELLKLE
pIC50: −log10 of the molar value.
Readout name: pIC50

- Compound: "C/C=C/C=C/c1cc2cc3c(c(O)c2c(=O)[nH]1)C1(CC3)C(=O)c2c(O)c3c(c(O)c2C1=O)C(=O)C(OC)=CC3=O (stereo not shown)"
  Experimental value: 5.21
